# target_or_system: T1, human monomeric His tagged CD33 protein (human, UniProt P20138 18-259)
# T1 construct: also called hCD33-His
# T1 sequence (P20138 18-259 limits assumed): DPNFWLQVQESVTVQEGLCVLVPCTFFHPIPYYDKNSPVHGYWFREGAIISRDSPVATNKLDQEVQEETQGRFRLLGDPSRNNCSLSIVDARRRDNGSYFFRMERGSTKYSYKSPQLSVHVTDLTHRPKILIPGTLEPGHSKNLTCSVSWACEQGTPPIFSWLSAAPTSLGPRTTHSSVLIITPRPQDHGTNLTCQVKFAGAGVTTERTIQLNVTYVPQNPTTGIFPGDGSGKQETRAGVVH
# measurement_notes: ForteBio BLI or MSD-SET, IgG, monomeric antigen;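 further: BLI: antibodies captured on AHQ sensors, 100 nM antigen association 5 min, dissociation 5 min, 1:1 fit. MSD-SET: antigen fixed at 50 pM, antibody titrated, quadratic fit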
quantity_measured: pKd
pKd field: float, defined as -log10 of concentration (mol/L).

The cases that follow already have their pKd on record.
>>> meas_value("C-11 (antibody, V domains shown, human IgG1) VH: QVQLVQSGAEVKKPGSSVKVSCKASGGTFSNYAISWVRQAPGQGLEWMGGIIPIFGTANYAQKFQGRVTITADESTSTAYMELSSLRSEDTAVYYCARDTGTYVTGDGMDVWGQGTTVTVSS VL: EIVMTQSPATLSVSPGERATLSCRASQSVSSNLAWYQQKPGQAPRLLIYSASTRATGIPARFSGSGSGTEFTLTISSLQSEDFAVYYCQQYIVLPITFGGGTKVEIK")
8.15
>>> meas_value("C-35 (antibody, V domains shown, human IgG1) VH: QLQLQESGPGLVKPSETLSLTCTVSGGSISSSSYAWGWIRQPPGKGLEWIGNIYYSGSTYYNPSLKSRVTISVDTSKNQFSLKLSSVTAADTAVYYCARAGYRSPSGFDYWGQGTLVTVSS VL: DIQMTQSPSSVSASVGDRVTITCRASQGISSWLAWYQQKPGKAPKLLIYAASNLQSGVPSRFSGSGSGTDFTLTISSLQPEDFATYYCQQGNAHPTFGGGTKVEIK")
8.37
>>> meas_value("C-72 (antibody, V domains shown, human IgG1) VH: QVQLVESGGGVVQPGRSLRLSCAASGFTFSSYGMHWVRQAPGKGLEWVAVIWYDGSNKYYADSVKGRFTISRDNSKNTLYLQMNSLRAEDTAVYYCAKEGGTYSDDFDLWGGGTLVTVSS VL: DIQMTQSPSSVSASVGDRVTITCRASQGISSWLAWYQQKPGKAPKLLIYAASSLQSGVPSRFSGSGSGTDFTLTISSLQPEDFATYYCQQASSFPLTFGGGTKVEIK")
8.11
>>> meas_value("C-12 (antibody, V domains shown, human IgG1) VH: EVQLLESGGGLVQPGGSLRLSCAASGFTFSNYAMSWVRQAPGKGLEWVSAISGSGGSTYYADSVKGRFTISRDNSKNTLYLQMNSLRAEDTAVYYCARDGSRYSYGLVAYGMDVWGQGTTVTVSS VL: EIVLTQSPGTLSLSPGERATLSCRASQSVSSSFLAWYQQKPGQAPRLLIYGASSRATGIPDRFSGSGSGTDFTLTISRLEPEDFAVYYCQQSQLRPTFGGGTKVEIK")
8.13
>>> meas_value("C-87 (antibody, V domains shown, human IgG1) VH: QLQLQESGPGLVKPSETLSLTCTVSGGSISSSSYAWGWIRQPPGKGLEWIGSIYYSGSTYYNPSLKSRVTISVDTSKNQFSLKLSSVTAADTAVYYCARDPLYPLTPYGMDVWGQGTTVTVSS VL: EIVMTQSPATLSLSPGERATLSCRASQSVSSYLAWYQQKPGQAPRLLIYDASNRATGIPARFSGSGSGTDFTLTISSLEPEDFAVYYCQQLSVFPPTFGGGTKVEIK")
8.15

Asked: Give the measured pKd for C-73 (antibody, V domains shown, human IgG1) VH: QVQLVESGGGVVQPGRSLRLSCAASGFTFSSYGMHWVRQAPGKGLEWVAVIWYDGSNKYYADSVKGRFTISRDNSKNTLYLQMNSLRAEDTAVYYCARGTNAYGTPRDFDLWGRGTLVTVSS VL: DIQMTQSPSSLSASVGDRVTITCRASQSISSYLNWYQQKPGKAPKLLIYAASSLQSGVPSRFSGSGSGTDFTLTISSLQPEDFATYYCQQLSDTPITFGGGTKVEIK
Given back: 7.63
